Each item that follows carries a reported EC50 (nM) direct cellular killing, HL60.
Target: T1, CLL1 on CLL1-expressing cells (U937, HL60) (human, UniProt Q5QGZ9 1-265)
T1 sequence (looked up): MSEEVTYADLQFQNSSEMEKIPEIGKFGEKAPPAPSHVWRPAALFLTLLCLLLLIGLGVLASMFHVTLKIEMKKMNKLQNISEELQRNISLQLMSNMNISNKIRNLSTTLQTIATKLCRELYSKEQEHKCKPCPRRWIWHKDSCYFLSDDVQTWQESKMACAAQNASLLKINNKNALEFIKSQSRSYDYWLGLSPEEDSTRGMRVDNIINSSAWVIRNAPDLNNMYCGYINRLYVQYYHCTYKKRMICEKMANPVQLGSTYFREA
Assay: cell-based or functional assay
Answers without a unit are incomplete; give the number and then its unit.

>>> recorded_result("ADC3-1 (antibody, human IgG1, kappa, V domains shown, conjugator-linker-payload on cysteine thiols after TCEP reduction; positions not given) VH: EVQLVQSGAEVKKPGASVKVSCKASGYSFTDYYMHWVRQAPGQGLEWIGRINPYAGAAFYSQNFKDRVTLTVDTSTSTAYLELSSLRSEDTAVYYCAIERGADLEGYAMDYWGQGTLVTVSS VL: DIQMTQSPSSLSASVGDRVTITCRASQSVSTSSYNYMHWYQQKPGKPPKLLIKYASNLESGVPSRFSGSGSGTDFTLTISSLQPEDFATYYCQHSWEIPLTFGQGTKVEIKR")
"5.7 nM"

input: Can you look up the measured EC50 (nM) direct cellular killing, HL60 of ADC3-A (antibody, human IgG1, kappa, V domains shown, conjugator-linker-payload on cysteine thiols after TCEP reduction; positions not given) VH: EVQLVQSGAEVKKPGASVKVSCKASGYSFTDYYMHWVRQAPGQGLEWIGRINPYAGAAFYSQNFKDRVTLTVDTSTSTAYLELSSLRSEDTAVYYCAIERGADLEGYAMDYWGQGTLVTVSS VL: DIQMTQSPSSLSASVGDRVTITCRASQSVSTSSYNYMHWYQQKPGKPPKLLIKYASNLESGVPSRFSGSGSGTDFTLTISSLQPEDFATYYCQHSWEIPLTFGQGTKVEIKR for me?
output: 6.3 nM
